# Study target: LpMip (Legionella pneumophila subsp. pneumophila)
# Sequence (Q5ZXE0 21-233 limits assumed): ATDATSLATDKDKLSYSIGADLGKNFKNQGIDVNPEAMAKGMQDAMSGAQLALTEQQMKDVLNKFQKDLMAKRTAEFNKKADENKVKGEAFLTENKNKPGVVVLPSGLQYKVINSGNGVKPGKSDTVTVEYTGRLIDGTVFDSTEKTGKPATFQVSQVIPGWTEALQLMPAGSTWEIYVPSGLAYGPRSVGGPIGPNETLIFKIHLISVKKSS
# Assay notes: biochemical
# Assay type: binding
Property name: Ki (nM)
Give just the number in nM; leave the unit off.

Study these solved cases before continuing.
CC[C@H]1CN([C@@H](C)c2ccccn2)C(=O)[C@@H]2CCC[C@H]1N2S(=O)(=O)c1ccc2ncsc2c1 [26b]: 284
C[C@@H](c1ccccn1)N1C[C@H](CO)[C@H]2CCC[C@@H](C1=O)N2S(=O)(=O)c1cc(Cl)cc(Cl)c1 [23b]: 36

Continue with the next molecule.
# input molecule: COC[C@H]1CN([C@@H](C)c2ccccn2)C(=O)[C@@H]2CCC[C@H]1N2S(=O)(=O)c1cc(Cl)cc(Cl)c1 [24b] ; wanted: its Ki
36

====

# Study target: FKBP12.6 (Homo sapiens, UniProt P68106)
# Sequence (P68106 whole entry): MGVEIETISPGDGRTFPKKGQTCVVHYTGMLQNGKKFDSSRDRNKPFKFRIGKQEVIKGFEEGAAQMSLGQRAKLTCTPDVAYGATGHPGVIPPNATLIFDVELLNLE
# Assay notes: Binding affinity of ligands with large RA (E3-ligase CRBN, PEG linker)
# Assay context: * = detection limit
Classify: Y when Ki is strictly less than 5 nM; N when Ki is not.

Some solved cases for reference:
C=C[C@H]1CN([C@@H](C)c2cn(CCOCC(=O)Nc3cccc4c3C(=O)N(C3CCC(=O)NC3=O)C4=O)nn2)C(=O)[C@@H]2CCC[C@H]1N2S(=O)(=O)c1cc(Cl)cc(Cl)c1 (some centres unmarked) [MTQ513]: Y
C=C[C@H]1CN(Cc2cn(CCOCCOCC(=O)Nc3cccc4c3C(=O)N(C3CCC(=O)NC3=O)C4=O)nn2)C(=O)[C@@H]2CCC[C@H]1N2S(=O)(=O)c1cc(Cl)cc(Cl)c1 (some centres unmarked) [MTQ504]: N

For C=C[C@H]1CN(Cc2cn(CCOCCOCCOCC(=O)Nc3cccc4c3C(=O)N(C3CCC(=O)NC3=O)C4=O)nn2)C(=O)[C@@H]2CCC[C@H]1N2S(=O)(=O)c1cc(Cl)cc(Cl)c1 (some centres unmarked) [MTQ505] , is the recorded Ki below the cut-off of 5 nM?
N

Same lookup for C=C[C@H]1CN([C@@H](C)c2cn(CCOCCOCC(=O)Nc3cccc4c3C(=O)N(C3CCC(=O)NC3=O)C4=O)nn2)C(=O)[C@@H]2CCC[C@H]1N2S(=O)(=O)c1cc(Cl)cc(Cl)c1 (some centres unmarked) [MTQ514] , please.
Y

Same lookup for C=C[C@H]1CN([C@@H](C)c2cn(CCOCCOCCOCC(=O)Nc3cccc4c3C(=O)N(C3CCC(=O)NC3=O)C4=O)nn2)C(=O)[C@@H]2CCC[C@H]1N2S(=O)(=O)c1cc(Cl)cc(Cl)c1 (some centres unmarked) [MTQ515] , please.
Y

====

# Study target: FKBP52 (Homo sapiens)
# Sequence (Q02790 1-459): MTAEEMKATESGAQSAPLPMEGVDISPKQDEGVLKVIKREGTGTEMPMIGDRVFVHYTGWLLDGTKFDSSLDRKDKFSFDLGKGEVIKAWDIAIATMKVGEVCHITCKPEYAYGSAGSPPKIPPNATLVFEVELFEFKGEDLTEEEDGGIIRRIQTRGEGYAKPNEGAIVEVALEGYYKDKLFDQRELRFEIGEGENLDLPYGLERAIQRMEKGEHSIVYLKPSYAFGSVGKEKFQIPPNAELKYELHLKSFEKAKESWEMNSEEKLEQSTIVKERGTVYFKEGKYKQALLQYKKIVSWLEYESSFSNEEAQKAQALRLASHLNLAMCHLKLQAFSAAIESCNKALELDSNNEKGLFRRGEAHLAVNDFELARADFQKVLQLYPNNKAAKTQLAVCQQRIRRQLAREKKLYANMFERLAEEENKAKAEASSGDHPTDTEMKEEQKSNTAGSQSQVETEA
# Assay notes: FP assay, binding to human FKBPs (Table 1)
# Assay context: fluorescence polarization assay
pKi: −log10 of the molar value.
Answer Not met if pKi is under 7, and Met if it is 7 or more.

C=C[C@H]1CN([C@H](C)c2cn(-c3ccc(OC)cc3)nn2)C(=O)[C@@H]2CCC[C@H]1N2S(=O)(=O)c1cc(Cl)cc(Cl)c1 [19c]: Not met
C=C[C@H]1CN([C@H](C)COCc2ccccc2)C(=O)[C@@H]2CCC[C@H]1N2S(=O)(=O)c1ccc2ncsc2c1 [16b]: Not met
C=C[C@H]1CN([C@H](C)c2ccccn2)C(=O)[C@@H]2CCC[C@H]1N2S(=O)(=O)c1cc(Cl)cc(Cl)c1: Not met
C=C[C@H]1CN(CC(=O)O)C(=O)[C@@H]2CCC[C@H]1N2S(=O)(=O)c1cc(Cl)cc(Cl)c1 [21a]: Not met
C=C[C@H]1CN([C@@H](C)COCc2ccccc2)C(=O)[C@@H]2CCC[C@H]1N2S(=O)(=O)c1cc(Cl)cc(Cl)c1 [15a]: Not met
C=C[C@H]1CN([C@H](C)CO)C(=O)[C@@H]2CCC[C@H]1N2S(=O)(=O)c1ccc2ncsc2c1 [17b]: Not met
CC[C@H]1CN([C@@H](C)c2ccccn2)C(=O)[C@@H]2CCC[C@H]1N2S(=O)(=O)c1ccc2ncsc2c1 [26b]: Met
CC[C@H]1CN(Cc2ccccn2)C(=O)[C@@H]2CCC[C@H]1N2S(=O)(=O)c1ccc2ncsc2c1 [26a]: Not met

Given C=C[C@H]1CN([C@H](C)COCc2ccccc2)C(=O)[C@@H]2CCC[C@H]1N2S(=O)(=O)c1cc(Cl)cc(Cl)c1 [15b] , state whether its pKi is at least 7.
Not met

Same lookup for C=C[C@H]1CN([C@@H](C)c2ccccn2)C(=O)[C@@H]2CCC[C@H]1N2S(=O)(=O)c1ccc2ncsc2c1 , please.
Met
